target: T1, rat CRF receptor, type 1 (rCRFR1) (rat, UniProt P35353 24-415)
T1 sequence (looked up): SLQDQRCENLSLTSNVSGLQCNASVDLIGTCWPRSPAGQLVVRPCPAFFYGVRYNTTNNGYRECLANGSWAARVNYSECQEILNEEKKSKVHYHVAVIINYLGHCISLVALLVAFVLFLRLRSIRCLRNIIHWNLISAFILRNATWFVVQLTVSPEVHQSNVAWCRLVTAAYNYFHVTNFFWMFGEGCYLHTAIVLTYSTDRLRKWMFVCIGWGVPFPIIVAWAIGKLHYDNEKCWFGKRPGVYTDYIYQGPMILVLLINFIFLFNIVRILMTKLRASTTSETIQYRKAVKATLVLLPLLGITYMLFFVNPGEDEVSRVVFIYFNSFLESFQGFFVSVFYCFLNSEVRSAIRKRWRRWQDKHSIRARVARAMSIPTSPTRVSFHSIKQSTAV
assay_details: cell-based or functional assay
Non-standard residues stand in square brackets, D forms with d. No end group written: not given here.
reported_metric: % IA (intrinsic activity), cAMP production, HEK-rCRFR1 cells

>  <binder>
[dF]ELLRKMIEIEKQEKEKQQAANNRLLLDTI (not fully specified (C-terminus), also called compound 12) [[DPhe^11]Svg(11-40)]

>  <value_reported>
0.07 relative, oCRF = 1.00

$$$$
>  <binder>
LELLRKMIEIEKQEKEKQQAANNRLLLDTI (not fully specified (C-terminus), also called compound 14) [Svg(11-40)]

>  <value_reported>
0.14 relative, oCRF = 1.00

$$$$
>  <binder>
SQEPPISLDLTFHLLREVLEMTKADQLAQQAHSNRKLLDIA (ends and bridges not checked, Synthetic peptide (Fmoc chemistry on TentaGel S RAM resin); also called compound 1) [ovine corticotropin-releasing factor (oCRF)]

>  <value_reported>
1 relative, oCRF = 1.00

$$$$
